FYI, the data here is from patent US20210388087A1.

- target.entity: T1, Human CD137 ECD (human)
- T1 construct: entry includes C-terminal His-tag and biotin acceptor peptide; also called human CD137 extracellular domain; 4-1BB
- assay.summary: Biacore SPR, vs parent H183/L072
Here, each record is paired with measured fold change of affinity data.
measurement.type: fold change of affinity (fold)

{"binder": "H183/L072 VL R29W (antibody, name in Kabat numbering, V domains shown, Dual-Ig) VH: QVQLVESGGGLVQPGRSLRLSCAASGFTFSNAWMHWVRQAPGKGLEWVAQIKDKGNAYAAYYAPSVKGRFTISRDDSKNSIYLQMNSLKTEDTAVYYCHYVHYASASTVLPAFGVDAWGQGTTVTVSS VL: DIVMTQSPLSLPVTPGEPASISCQASQELVHMNWNTYLHWYQQKPGQAPRLLIYKVSNRFPGVPDRFSGSGSGTDFTLKISRVEAEDVGVYYCAQGTSVPFTFGQGTKLEIK", "units.text": "fold", "value.measured": 0.6}
{"binder": "H183/L072 VL V51T (antibody, name in Kabat numbering, V domains shown, Dual-Ig) VH: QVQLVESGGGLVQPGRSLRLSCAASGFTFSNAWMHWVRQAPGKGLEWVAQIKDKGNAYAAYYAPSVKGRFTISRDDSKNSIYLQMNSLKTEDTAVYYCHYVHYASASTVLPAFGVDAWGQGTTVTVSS VL: DIVMTQSPLSLPVTPGEPASISCQASQELVHMNRNTYLHWYQQKPGQAPRLLIYKTSNRFPGVPDRFSGSGSGTDFTLKISRVEAEDVGVYYCAQGTSVPFTFGQGTKLEIK", "units.text": "fold", "value.measured": 0.6}
{"binder": "H183/L072 VL S93T (antibody, name in Kabat numbering, V domains shown, Dual-Ig) VH: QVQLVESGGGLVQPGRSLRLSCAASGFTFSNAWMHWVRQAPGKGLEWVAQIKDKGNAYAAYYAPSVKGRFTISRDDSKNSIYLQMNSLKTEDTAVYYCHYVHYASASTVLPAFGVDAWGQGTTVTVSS VL: DIVMTQSPLSLPVTPGEPASISCQASQELVHMNRNTYLHWYQQKPGQAPRLLIYKVSNRFPGVPDRFSGSGSGTDFTLKISRVEAEDVGVYYCAQGTTVPFTFGQGTKLEIK", "units.text": "fold", "value.measured": 1.1}
